B1: library; numbered along this chain (parent)
chain: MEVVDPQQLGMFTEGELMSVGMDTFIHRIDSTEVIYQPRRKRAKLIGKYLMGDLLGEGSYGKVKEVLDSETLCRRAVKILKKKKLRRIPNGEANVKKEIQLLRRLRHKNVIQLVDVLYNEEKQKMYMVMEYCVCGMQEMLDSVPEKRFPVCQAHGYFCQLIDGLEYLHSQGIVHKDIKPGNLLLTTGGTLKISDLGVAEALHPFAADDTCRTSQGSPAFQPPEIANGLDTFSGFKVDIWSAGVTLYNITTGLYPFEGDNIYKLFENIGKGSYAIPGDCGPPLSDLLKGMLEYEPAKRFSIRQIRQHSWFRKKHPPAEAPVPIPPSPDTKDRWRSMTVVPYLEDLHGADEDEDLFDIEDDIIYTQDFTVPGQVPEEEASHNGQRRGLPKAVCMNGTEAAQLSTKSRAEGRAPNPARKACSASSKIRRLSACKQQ

Variants of: B1
method.summary: STK11 functional score (HeLa growth suppression), rescaled enrichment; synonymous median = 1, nonsense median = 0 (normalised score)
details: with HeLa; variant type: missense
property.measured: STK11 functional score
Form field (numeric): enter value without unit.

The examples below pair each entry with its known result.
K329M: 1.55
C210G: 1.03

Which STK11 functional score is listed for `E223G` ?
0.169

Which STK11 functional score is reported for this variant? `F231M`
-0.0118

GET /values?readout=STK11 functional score&item= `E376K`
1.41

# STK11 functional score lookup, item `G279L`
1.41

GET /values?readout=STK11 functional score&item= `R103C`
1.05

Recorded STK11 functional score for `E199G` , please?
1.07

// returns reported STK11 functional score for input `I424L`
1.34

Find the recorded STK11 functional score belonging to `D68S` and report it.
1.29

Record request: STK11 functional score value, item `Y362E`
0.99

All figures here come from the supplement of paper PMC12338614.
